target.of.assay: Voltage-gated inwardly rectifying potassium channel KCNH2 (Homo sapiens, UniProt Q12809)
Sequence (Q12809 whole entry): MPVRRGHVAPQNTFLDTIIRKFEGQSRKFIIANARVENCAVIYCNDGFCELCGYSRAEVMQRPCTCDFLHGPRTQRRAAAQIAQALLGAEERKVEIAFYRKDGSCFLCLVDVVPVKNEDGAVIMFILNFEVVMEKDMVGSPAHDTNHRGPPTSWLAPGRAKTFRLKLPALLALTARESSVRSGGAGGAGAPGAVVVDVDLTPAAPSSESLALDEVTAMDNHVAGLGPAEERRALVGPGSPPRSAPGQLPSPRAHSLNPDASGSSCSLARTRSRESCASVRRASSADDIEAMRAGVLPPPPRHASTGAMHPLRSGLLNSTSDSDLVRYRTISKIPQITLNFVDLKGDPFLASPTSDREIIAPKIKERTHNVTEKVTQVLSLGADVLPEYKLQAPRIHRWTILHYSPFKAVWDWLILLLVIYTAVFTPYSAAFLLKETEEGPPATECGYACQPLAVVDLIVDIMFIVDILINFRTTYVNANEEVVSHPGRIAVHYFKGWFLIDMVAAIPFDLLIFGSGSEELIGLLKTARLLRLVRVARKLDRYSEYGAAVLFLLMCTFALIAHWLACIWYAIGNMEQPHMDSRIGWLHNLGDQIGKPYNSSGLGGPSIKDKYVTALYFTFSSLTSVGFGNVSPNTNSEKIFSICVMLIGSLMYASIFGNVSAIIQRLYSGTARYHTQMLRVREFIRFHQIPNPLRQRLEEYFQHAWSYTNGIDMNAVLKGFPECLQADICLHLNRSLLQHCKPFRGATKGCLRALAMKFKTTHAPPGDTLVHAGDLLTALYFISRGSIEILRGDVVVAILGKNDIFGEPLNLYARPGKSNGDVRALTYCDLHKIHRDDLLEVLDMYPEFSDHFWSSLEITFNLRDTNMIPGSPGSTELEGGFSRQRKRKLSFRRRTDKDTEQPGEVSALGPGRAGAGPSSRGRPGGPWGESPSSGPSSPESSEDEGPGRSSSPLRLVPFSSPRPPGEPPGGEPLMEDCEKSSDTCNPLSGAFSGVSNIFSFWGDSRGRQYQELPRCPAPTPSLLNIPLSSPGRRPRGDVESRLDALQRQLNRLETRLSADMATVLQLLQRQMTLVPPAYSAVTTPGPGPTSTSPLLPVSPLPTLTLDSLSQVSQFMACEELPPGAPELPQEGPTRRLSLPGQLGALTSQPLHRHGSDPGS
pIC50: −log10 of the molar value.
Classification field: 1.0 = pIC50 at or over 5; 0.0 = pIC50 under 5.

> print(dat)
                           structure.smiles                           target.of.assay  assigned.label
1  O=C(NCC1(N2CCOCC2)CCCCC1)N1CCC(c2nc(-c3ccc4ccccc4n3)no2)CC1  Voltage-gated inwardly rectifying potassium channel KCNH2 (Homo sapiens, UniProt Q12809)             1.0
2  O=C(NCC1(N2CCCC2)CCCC1)N1CCC(c2nc(-c3ccc4ccccc4n3)no2)CC1  Voltage-gated inwardly rectifying potassium channel KCNH2 (Homo sapiens, UniProt Q12809)             1.0
3  CN(C)C1(CNC(=O)N2CCC(c3nc(-c4ccc5ccccc5n4)no3)CC2)CCCC1  Voltage-gated inwardly rectifying potassium channel KCNH2 (Homo sapiens, UniProt Q12809)             0.0
4  CCNC1(CNC(=O)N2CCC(c3nc(-c4ccc5ccccc5n4)no3)CC2)CCCC1  Voltage-gated inwardly rectifying potassium channel KCNH2 (Homo sapiens, UniProt Q12809)             0.0
